Hello, the source for this data is patent US20210238170A1, in case you need it.

# Test System: human SGLT1 (Homo sapiens)
# Construct: expressed in transfected cells
# Experiment Notes: SGLT1 in vitro assay: Na-dependent 14C-AMG uptake in CHO-K1 cells stably expressing human SGLT1
# Format: cell-based
# Condition Info: CHO-K1 cells stably expressing human SGLT1; 14C-AMG uptake; compounds of formula (I) where R0 is fluoro
The compounds listed here are annotated with their IC50.
# answer = value followed by unit

What does the data say about its IC50? Entry: OC[C@H]1O[C@@H](c2cc(Cc3ccc(Cl)s3)c(Cl)cc2O)[C@H](O)[C@@H](O)C1(F)F [Compound 167]
20 nM

What do you get for COc1cccc(Cc2cc([C@@H]3O[C@H](CO)C(F)(F)[C@H](O)[C@H]3O)c(O)cc2Cl)c1 [Compound 157] ?
112 nM

What do you get for COc1cc(C)c(Cc2ccc(Cl)s2)cc1[C@@H]1O[C@H](CO)C(F)(F)[C@H](O)[C@H]1O [Compound 112] ?
1030 nM

What do you get for Cc1ccc(Cc2cc([C@@H]3O[C@H](CO)C(F)(F)[C@H](O)[C@H]3O)c(O)cc2C)cc1F [Compound 177] ?
13 nM

---

# Test System: human SGLT2 (Homo sapiens, UniProt P31639)
# Construct: expressed in transfected cells
# Experiment Notes: SGLT2 in vitro assay: Na-dependent 14C-AMG uptake in CHO-K1 cells stably expressing human SGLT2
# Assay type: cell-based
# Condition Info: CHO-K1 cells stably expressing human SGLT2; 14C-AMG uptake; compounds of formula (I) where R0 is fluoro
The molecules listed here are annotated with their pIC50.
On this scale, pIC50 is minus log10 of a concentration expressed in M (mol/L).

What does the data say about its pIC50? Entry: Cc1c(Cc2cc3ccccc3s2)cc([C@@H]2O[C@H](CO)C(F)(F)[C@H](O)[C@H]2O)c(O)c1C
7.91

What do you get for CCc1cc(O)c([C@@H]2OC3(CC3)C(F)(F)[C@H](O)[C@H]2O)cc1Cc1ccc2c(c1)OCCO2 ?
7.79

What do you get for CCOc1ccc(Cc2cc([C@@H]3O[C@H](CO)C(F)(F)[C@H](O)[C@H]3O)c(O)cc2C)cc1 ?
8.74

What do you get for OC[C@H]1O[C@@H](c2cc(Cc3ccc4c(c3)OCC4)c(Cl)cc2O)[C@H](O)[C@@H](O)C1(F)F ?
9.05

What do you get for OC[C@H]1O[C@@H](c2cc(Cc3ccc(Cl)cc3)c(Cl)cc2O)[C@H](O)[C@@H](O)C1(F)F ?
8.92

What do you get for Cc1ccc(Cc2cc([C@@H]3O[C@H](CO)C(F)(F)[C@H](O)[C@H]3O)c(O)cc2C)cc1F ?
8.51

---

The compounds listed here are annotated with their pIC50.
# Test System: human SGLT1 (Homo sapiens, UniProt P13866)
# Construct: expressed in transfected cells
# Sequence (P13866 1-664): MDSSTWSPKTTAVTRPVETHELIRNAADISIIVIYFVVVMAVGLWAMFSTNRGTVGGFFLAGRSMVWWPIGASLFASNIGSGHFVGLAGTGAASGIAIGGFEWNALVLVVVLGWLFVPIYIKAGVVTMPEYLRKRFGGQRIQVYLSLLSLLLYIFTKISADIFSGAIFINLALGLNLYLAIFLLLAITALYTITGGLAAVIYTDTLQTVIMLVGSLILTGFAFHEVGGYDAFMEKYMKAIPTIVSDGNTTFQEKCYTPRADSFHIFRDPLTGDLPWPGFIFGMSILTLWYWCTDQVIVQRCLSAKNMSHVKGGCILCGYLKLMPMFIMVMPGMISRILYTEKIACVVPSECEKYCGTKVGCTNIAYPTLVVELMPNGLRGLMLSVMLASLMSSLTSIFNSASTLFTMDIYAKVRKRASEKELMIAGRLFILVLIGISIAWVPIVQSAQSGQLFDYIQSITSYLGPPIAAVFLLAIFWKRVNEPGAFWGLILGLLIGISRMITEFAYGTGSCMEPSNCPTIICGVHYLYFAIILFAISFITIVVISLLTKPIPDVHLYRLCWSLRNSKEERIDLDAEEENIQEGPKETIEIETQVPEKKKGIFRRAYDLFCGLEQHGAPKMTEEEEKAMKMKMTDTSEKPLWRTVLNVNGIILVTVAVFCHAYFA
# Experiment Notes: SGLT1 in vitro assay: Na-dependent 14C-AMG uptake in CHO-K1 cells stably expressing human SGLT1
# Format: cell-based
# Condition Info: CHO-K1 cells stably expressing human SGLT1; 14C-AMG uptake; compounds of formula (I) where R0 is fluoro
On this scale, pIC50 is minus log10 of a concentration expressed in M (mol/L).

Please review the entries below; each comes with its answer.
COc1ccc(Cc2cc([C@@H]3O[C@H](CO)C(F)(F)[C@H](O)[C@H]3O)c(O)cc2Cl)cc1: 7.47
OC[C@H]1O[C@@H](c2cc(Cc3ccc(Cl)cc3)c(Cl)cc2O)[C@H](O)[C@@H](O)C1(F)F: 7.60
CCc1cc(O)c([C@@H]2O[C@H](CO)C(F)(F)[C@H](O)[C@H]2O)cc1Cc1cc2ccccc2s1: 7.36
COc1cc(O)c([C@@H]2O[C@H](CO)C(F)(F)[C@H](O)[C@H]2O)cc1Cc1ccc2c(c1)OCCO2: 6.05
COc1c([C@@H]2O[C@H](CO)C(F)(F)[C@H](O)[C@H]2O)cc(Cc2ccc3c(c2)OCCO3)c2c1CCO2: 6.52
CCc1ccc(Cc2cc([C@@H]3O[C@H](CO)C(F)(F)[C@H](O)[C@H]3O)c(O)cc2Cl)cc1: 6.85

Next compound, pIC50 to be filled in.
Lookup: pIC50 / human SGLT1 (Homo sapiens, UniProt P13866) / Cc1cc(O)c([C@@H]2O[C@H](CO)C(F)(F)[C@H](O)[C@H]2O)cc1Cc1ccc(-c2cccc(F)n2)s1
6.92

---

# Test System: human SGLT2 (Homo sapiens)
# Construct: expressed in transfected cells
# Sequence (P31639 1-672): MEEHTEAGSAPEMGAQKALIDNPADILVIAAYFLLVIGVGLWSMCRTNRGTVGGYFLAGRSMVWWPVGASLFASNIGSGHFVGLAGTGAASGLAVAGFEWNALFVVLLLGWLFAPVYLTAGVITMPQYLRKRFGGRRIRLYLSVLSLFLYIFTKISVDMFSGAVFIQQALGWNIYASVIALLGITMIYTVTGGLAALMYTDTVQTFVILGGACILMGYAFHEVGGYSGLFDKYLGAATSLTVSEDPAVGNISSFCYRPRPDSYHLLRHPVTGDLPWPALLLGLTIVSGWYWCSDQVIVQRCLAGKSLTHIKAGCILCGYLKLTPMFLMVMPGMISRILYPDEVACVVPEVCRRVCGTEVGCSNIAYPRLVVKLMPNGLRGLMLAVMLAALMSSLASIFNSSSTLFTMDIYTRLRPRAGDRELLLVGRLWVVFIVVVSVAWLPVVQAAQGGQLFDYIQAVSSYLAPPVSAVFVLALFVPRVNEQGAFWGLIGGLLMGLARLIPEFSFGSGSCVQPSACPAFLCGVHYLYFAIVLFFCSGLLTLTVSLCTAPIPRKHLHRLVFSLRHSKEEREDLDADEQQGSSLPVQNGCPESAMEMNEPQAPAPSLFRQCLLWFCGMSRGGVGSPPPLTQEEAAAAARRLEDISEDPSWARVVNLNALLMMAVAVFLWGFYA
# Experiment Notes: SGLT2 in vitro assay: Na-dependent 14C-AMG uptake in CHO-K1 cells stably expressing human SGLT2
# Assay type: cell-based
# Condition Info: CHO-K1 cells stably expressing human SGLT2; 14C-AMG uptake; compounds of formula (I) where R0 is fluoro
Recorded Endpoint: IC50

Please review the entries below; each comes with its answer.
CCc1ccc(Cc2cc([C@@H]3O[C@H](CO)C(F)(F)[C@H](O)[C@H]3O)c(O)c3c2OCC3)cc1: 7.2 nM
COc1cc(O)c([C@@H]2O[C@H](CO)C(F)(F)[C@H](O)[C@H]2O)cc1Cc1ccc2c(c1)CCO2: 17.3 nM
Cc1cc(O)c([C@@H]2O[C@H](CO)C(F)(F)[C@H](O)[C@H]2O)cc1Cc1cc2c(s1)CCN(C#N)C2: 5.5 nM

Next compound, IC50 to be filled in.
What does the data say about its IC50? Entry: COc1c([C@@H]2O[C@H](CO)C(F)(F)[C@H](O)[C@H]2O)cc(Cc2ccc3c(c2)OCCO3)c2c1CCO2
5 nM

---

The compounds listed here are annotated with their SGLT1 % Inh @ 0.3 μM.
# Test System: human SGLT1 (Homo sapiens)
# Construct: expressed in transfected cells
# Sequence (P13866 1-664): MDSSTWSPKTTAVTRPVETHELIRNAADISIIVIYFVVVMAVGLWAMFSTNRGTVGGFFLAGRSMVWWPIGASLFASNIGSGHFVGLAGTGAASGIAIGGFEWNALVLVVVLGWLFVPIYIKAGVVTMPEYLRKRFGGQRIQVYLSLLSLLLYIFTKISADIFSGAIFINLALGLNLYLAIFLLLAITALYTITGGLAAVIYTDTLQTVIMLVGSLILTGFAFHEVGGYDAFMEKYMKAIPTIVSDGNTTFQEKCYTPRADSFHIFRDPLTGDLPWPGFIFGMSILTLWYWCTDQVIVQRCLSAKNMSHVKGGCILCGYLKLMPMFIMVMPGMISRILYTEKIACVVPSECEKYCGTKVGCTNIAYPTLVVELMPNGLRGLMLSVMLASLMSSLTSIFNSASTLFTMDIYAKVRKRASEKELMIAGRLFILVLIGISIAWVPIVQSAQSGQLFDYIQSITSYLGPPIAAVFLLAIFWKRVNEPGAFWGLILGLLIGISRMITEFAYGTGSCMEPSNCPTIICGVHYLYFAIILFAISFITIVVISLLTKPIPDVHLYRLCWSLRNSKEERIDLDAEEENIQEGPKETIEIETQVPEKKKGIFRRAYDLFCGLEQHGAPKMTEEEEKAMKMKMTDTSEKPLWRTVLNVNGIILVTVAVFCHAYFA
# Experiment Notes: SGLT1 in vitro assay: Na-dependent 14C-AMG uptake in CHO-K1 cells stably expressing human SGLT1
# Type: cell-based
# Condition Info: @ 0.3 μM; CHO-K1 cells stably expressing human SGLT1; 14C-AMG uptake
# Protocol: Biological Example 1: SGLT1 and SGLT2 In Vitro Assays The ability of the compounds of formula (I) of the present invention to treat an SGLT-mediated condition was determined using the following procedures: […] Inhibition of SGLT1 and SGLT2 activity was assessed in CHO K1 cells stably expressing either human SGLT1 or SGLT2, using the SGLT specific glucose analog methyl-glucopyranoside (Sigma Catalog No. M-9376). […] Plates were counted in a TopCount (Packard, Meriden, Conn.) […]

Cc1cc(O)c([C@@H]2O[C@H](CO)C(F)(F)[C@H](O)[C@H]2O)cc1Cc1cc2c(s1)CCN(C(=O)c1nccs1)C2: 31.1%
Cc1cc(O)c([C@@H]2O[C@H](CO)C(F)(F)[C@H](O)[C@H]2O)cc1Cc1cc2c(s1)CCN(C#N)C2: 50.3%
COc1cc(OC)c([C@@H]2O[C@H](CO)C(F)(F)[C@H](O)[C@H]2O)cc1Cc1ccc(OCF)cc1: 26.5%
COc1cc(Cl)c(Cc2ccc(OC(F)(F)F)cc2)cc1[C@@H]1O[C@H](CO)C(F)(F)[C@H](O)[C@H]1O: 29.5%
CCc1ccc(Cc2cc([C@@H]3O[C@H](CO)C(F)(F)[C@H](O)[C@H]3O)c(OC)cc2C#N)cc1: 8.5%
Cc1cc(OC(C)C)c([C@@H]2O[C@H](CO)C(F)(F)[C@H](O)[C@H]2O)cc1Cc1cc2ccccc2s1: 8.9%

Next compound, SGLT1 % Inh @ 0.3 μM to be filled in.
Lookup: SGLT1 % Inh @ 0.3 μM / human SGLT1 (Homo sapiens) / COc1c(Cc2ccc3c(c2)CCCO3)cc([C@@H]2O[C@H](CO)C(F)(F)[C@H](O)[C@H]2O)c2c1CCO2
34.5%
